Below, each entry is listed with its recorded melting point.
Express it in °C; write the number only.

// below: answered compounds
Problem: Any idea what melting point was measured for `Cc1cccc(-c2sc(N)nc2-c2ccnc(-c3ccc(CN4CCCC4)cc3)c2)n1` ?
Solution: 200

Problem: And the next one, `Cc1cccc(-c2sc(N)nc2-c2ccnc(-c3ccc(CN4CCOCC4)cc3)c2)n1` ?
Solution: 236

Problem: What would you report for `Cc1cccc(-c2sc(N)nc2-c2ccnc(-c3ccc(OC(F)(F)F)cc3)c2)n1` ?
Solution: 232

Problem: Same again, this time with `Cc1cccc(-c2sc(N)nc2-c2ccnc(-c3ccc(CN(C)C)cc3)c2)n1`
Solution: 210

Problem: Can you handle `Nc1nc(-c2ccccn2)c(-c2ccnc(-c3ccc(N4CCOCC4)cc3)c2)s1` next?
Solution: 246

Problem: Please do the same for `Cc1cccc(-c2sc(N)nc2-c2ccnc(-c3ccc(OCCN4CCCC4)cc3)c2)n1` as well.
Solution: 150

Problem: Okay, and `Nc1nc(-c2ccnc(-c3ccc(N4CCOCC4)cc3)c2)c(-c2ccccn2)s1` ?
Solution: 276

Problem: What about `Cc1cccc(-c2sc(N)nc2-c2ccnc(-c3ccc(C(=O)N4CCOCC4)cc3)c2)n1` ?
Solution: 246

---
Problem: Reported melting point, compound `Cc1cccc(-c2sc(N)nc2-c2ccnc(-c3ccc(Cl)cc3)c2)n1` : ____
Solution: 222

Problem: Next entry: `Cc1cccc(-c2sc(N)nc2-c2ccnc(-c3ccc(N4CCOCC4)cc3)c2)n1`
Solution: 246

Problem: Can you handle `Cc1cccc(-c2sc(N)nc2-c2ccnc(-c3ccc(OCC(N)=O)cc3)c2)n1` next?
Solution: 191

Problem: Another: `Nc1nc(-c2ccnc(-c3ccc(C(=O)NC4CCOCC4)cc3)c2)c(-c2ccccn2)s1`
Solution: 268

Problem: Follow-up entry: `CCN1CCN(C(=O)c2ccc(-c3cc(-c4nc(N)sc4-c4cccc(C)n4)ccn3)cc2)CC1`
Solution: 224

Problem: Similarly, `Cc1cccc(-c2sc(N)nc2-c2ccnc(-c3ccc(OCC(=O)N4CCOCC4)cc3)c2)n1` ?
Solution: 172

###

- Experimental system: recombinant GST-ALK5 (residues 198-503) (Homo sapiens, UniProt P36897)
- Construct: recombinant GST-ALK5 (residues 198-503)
- Sequence (P36897 198-503): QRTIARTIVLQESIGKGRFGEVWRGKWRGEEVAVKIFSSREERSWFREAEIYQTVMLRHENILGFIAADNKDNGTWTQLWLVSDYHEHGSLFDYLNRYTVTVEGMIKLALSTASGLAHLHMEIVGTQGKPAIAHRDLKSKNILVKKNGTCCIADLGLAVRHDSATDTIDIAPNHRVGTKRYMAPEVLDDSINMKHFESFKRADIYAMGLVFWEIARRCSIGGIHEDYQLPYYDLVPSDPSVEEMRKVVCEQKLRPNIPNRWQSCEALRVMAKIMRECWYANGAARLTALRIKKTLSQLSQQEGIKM
- Assay explanation: Alk5 fluorescence polarization assay
- Test settings: rhodamine green-labelled ligand 1 nM, ALK5 10 nM, read-out: ALK5 receptor modulator activity (IC50)
Property name: pIC50
Scale: pIC50 equals -log10([C]), with [C] in mol/L.

Problem: // lookup pIC50 for `CCN1CCN(c2ccc(-c3cc(-c4sc(N)nc4-c4cccc(C)n4)ccn3)cc2)CC1`
Solution: 7.85

# context switch: different molecule, same pIC50
Problem: Suppose we examine the molecule `Cc1cccc(-c2sc(N)nc2-c2ccnc(-c3ccc(CN(C)C)cc3)c2)n1` ; what pIC50 value has been reported?
Solution: 7.54

###

The compounds listed here are annotated with their melting point.

Known melting point results, listed for orientation:
Problem: Param item = COc1ccc(-c2cc(-c3sc(N)nc3-c3cccc(C)n3)ccn2)cc1 [Example 8] ; retrieve measured melting point.
Solution: 188 to 190 °C

Problem: Input Cc1cccc(-c2nc(N)sc2-c2ccnc(-c3ccc(OC(F)(F)F)cc3)c2)n1 [Example 9]
Solution: 222 to 224 °C

Problem: Next entry: Cc1cccc(-c2nc(N)sc2-c2ccnc(-c3ccc(C(=O)N4CCOCC4)cc3)c2)n1 [Example 5]
Solution: 158 to 160 °C

Problem: Repeat with Cc1cccc(-c2nc(N)sc2-c2ccnc(-c3ccc(C(=O)NC4CCOCC4)cc3)c2)n1 [Example 6]
Solution: 230 to 232 °C

---
Problem: So what's the measured melting point for this one? Cc1cccc(-c2nc(N)sc2-c2ccnc(-c3ccc(S(C)(=O)=O)cc3)c2)n1 [Example 2]
Solution: 236 to 238 °C

Problem: Same thing, different compound: Cc1cccc(-c2nc(N)sc2-c2ccnc(-c3ccc(OCCN4CCCC4)cc3)c2)n1 [Example 11]
Solution: 176 to 178 °C

Problem: Same question, CCN1CCN(c2ccc(-c3cc(-c4sc(N)nc4-c4cccc(C)n4)ccn3)cc2)CC1 [Example 3] this time
Solution: 230 to 232 °C

Problem: // query: Cc1cccc(-c2nc(N)sc2-c2ccnc(-c3ccc(N4CCOCC4)cc3)c2)n1 [Example 4]
Solution: 250 to 252 °C

Problem: Another: Cc1cccc(-c2nc(N)sc2-c2ccnc(-c3ccc(OCc4cn(C)cn4)cc3)c2)n1 [Example 12]
Solution: 226 to 228 °C

Problem: Try this compound next: Cc1cccc(-c2nc(N)sc2-c2ccnc(-c3ccc(CN4CCOCC4)cc3)c2)n1 [Example 7]
Solution: 190 to 192 °C
